# Target Desc: Ubiquitin carboxyl-terminal hydrolase 2 (Homo sapiens) (UniProt O75604)
# Sequence (O75604 whole entry, looked up): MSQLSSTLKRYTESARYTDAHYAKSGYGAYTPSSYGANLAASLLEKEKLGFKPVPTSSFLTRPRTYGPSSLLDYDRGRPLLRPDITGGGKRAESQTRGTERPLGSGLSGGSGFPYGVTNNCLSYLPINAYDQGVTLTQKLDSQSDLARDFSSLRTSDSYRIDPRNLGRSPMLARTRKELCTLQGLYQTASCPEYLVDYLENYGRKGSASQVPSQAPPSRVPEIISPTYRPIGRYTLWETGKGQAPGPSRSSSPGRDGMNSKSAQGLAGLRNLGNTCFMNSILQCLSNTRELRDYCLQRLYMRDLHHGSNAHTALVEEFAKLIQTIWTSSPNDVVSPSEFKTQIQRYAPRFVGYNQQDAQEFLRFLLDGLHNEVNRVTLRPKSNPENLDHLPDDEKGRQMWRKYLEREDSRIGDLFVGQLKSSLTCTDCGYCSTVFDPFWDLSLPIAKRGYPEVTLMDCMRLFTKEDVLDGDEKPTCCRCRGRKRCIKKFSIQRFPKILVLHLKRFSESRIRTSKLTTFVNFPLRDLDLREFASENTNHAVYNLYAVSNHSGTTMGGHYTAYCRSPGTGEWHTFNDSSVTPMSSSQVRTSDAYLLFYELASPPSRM
# Measurement Protocol: Confirmation Assay for Inhibitors of Ubiquitin-specific Protease USP2a Using CHOP2 as the Reporter; further: nearly all actives have a fitted effect of over 55% in size
# Assay Conditions: USP2 core, Ub-CHOP2 coupled reporter fluorescence; series mostly up to 38.3 µM
Results filed as inconclusive are left out. Activity calls are given as the source filed them. The call rests on the fitted dose curve; in most records, active means well fitted inhibition curve with a large enough effect; inconclusive means small, poorly fitted or top-dose-only effect, or effect the other way; inactive means flat fitted curve, though single readings scatter.
Reply using exactly one outcome from yes (1) (active), no (0) (inactive)

# count of solved cases: 4
Compound: C#CCOCCOCCOCCNc1nc(N2CCN(C(=O)CCCCCCCCCCNC(=O)[C@@H](CCC(=O)O)n3cc(CCCCCN)nn3)CC2)nc(N2CCN(C(=O)CCCCCCCCCCNC(=O)[C@H]([C@@H](C)CC)n3cc(CCCCCN)nn3)CC2)n1
Qualitative Label: yes (1)
//
Compound: Cc1ccc2[nH]c(=O)c(COC(=O)c3ccccn3)cc2c1
Qualitative Label: no (0)
//
Compound: CCOC(=O)N1CCC(NC(=O)c2ccc(OC)c(CN3CC(=O)N4CCCC4C3=O)c2)CC1 (stereo not given)
Qualitative Label: no (0)
//
Compound: COCc1cc(C)nc(OCC(=O)N/N=C\c2cc(C)n(-c3cccc(C(F)(F)F)c3)c2C)c1C#N
Qualitative Label: no (0)

Turning to the following compound.
Outcome? "COC(=O)c1nnn(-c2nonc2N)c1CSc1ccccn1" no (0)

----------
# Target Desc: Ubiquitin carboxyl-terminal hydrolase 2 (Homo sapiens)
# Measurement Protocol: Confirmation Assay for Inhibitors of Ubiquitin-specific Protease USP2a Using CHOP2 as the Reporter; further: nearly all actives have a fitted effect of over 55% in size
# Assay Conditions: USP2 core, Ub-CHOP2 coupled reporter fluorescence; series mostly up to 38.3 µM
Inconclusive results are not listed. Activity calls are given as the source filed them. Calls come from the whole dose curve; as a rule, active = well fitted inhibition curve with a large enough effect; inconclusive = small, poorly fitted or top-dose-only effect, or effect the other way; inactive = flat fitted curve, though single readings scatter.
Reply using exactly one outcome from active, inactive

# count of solved cases: 2
Compound: O=C(NCCC1=CCCCC1)C1CCCN(S(=O)(=O)c2cnc[nH]2)C1 (stereo unspecified)
Qualitative Label: inactive
//
Compound: COc1ccc(OCC(=O)Nc2ccccc2OC)cc1
Qualitative Label: inactive

Outcome? "CC(=O)c1c(N2CCCC2)[nH]c(-c2ccccc2)nc1=S" inactive

For "Cc1c2c(=O)n(-c3nc4ccccc4s3)nc-2cc(O)n1Cc1ccccc1" then? inactive

For "Cc1noc(C)c1NC(=O)Nc1ccc2c(c1)C(=O)N([C@H](C)CO)C[C@H](C)[C@@H](CN(C)S(=O)(=O)c1ccccc1)O2" then? inactive

For "CCC/C(O)=C1\C(=O)CC(C)(C)CC1=Nc1ccc(OC)cc1OC" then? inactive

For "O=C(Nc1cccc(S(=O)(=O)NC2=NCCC2)c1)c1cc(-c2ccco2)nc2ccccc12" then? active

For "O=c1oc2c(CN3CCCCC3)c(O)ccc2c2c1CCCCC2" then? inactive

For CCCOc1ccc(/C=C2\SC(=S)N(CC3CCCO3)C2=O)cc1 (stereo unspecified) then? inactive

For "Cc1cc(C)cc(NC(=O)CSc2nc3c(c(=O)[nH]2)CN(Cc2ccc(F)cc2)CC3)c1" then? inactive

----------
# Target Desc: Ubiquitin carboxyl-terminal hydrolase 2 (Homo sapiens)
# Measurement Protocol: Confirmation Assay for Inhibitors of Ubiquitin-specific Protease USP2a Using CHOP2 as the Reporter; further: nearly all actives have a fitted effect of over 55% in size
# Assay Conditions: USP2 core, Ub-CHOP2 coupled reporter fluorescence; series mostly up to 38.3 µM
Records with an inconclusive call do not appear. Active and inactive are the calls of the source. The call rests on the fitted dose curve; in most records, active means well fitted inhibition curve with a large enough effect; inconclusive means small, poorly fitted or top-dose-only effect, or effect the other way; inactive means flat fitted curve, though single readings scatter.
Reply using exactly one outcome from 1.0 for active, 0.0 for inactive

# count of solved cases: 5
Molecule: Nc1c(C(=O)NCC2CCCO2)sc2nc3c(c(-c4ccco4)c12)CC/C3=C\c1ccco1 (stereo unspecified)
Qualitative Label: 1.0

Molecule: COc1ccc(OC)c(NC(=O)CSc2nc(O)cc(=O)n2CC(C)C)c1
Qualitative Label: 0.0

Molecule: O=C(Nc1ccc(N2CCCC2)c(Cl)c1)c1ccc(Br)o1
Qualitative Label: 0.0

Molecule: CC(C)c1ccc(C2=C(O)c3ccccc3C(=O)C2=O)cc1
Qualitative Label: 0.0

Molecule: NC(=O)CC(NC(=O)Cc1ccc(Br)cc1)c1ccc(N2CCC(Cc3ccccc3)CC2)c([N+](=O)[O-])c1 (stereo unspecified)
Qualitative Label: 0.0

Outcome? "Cc1cc(-c2csc(NCc3ccccc3)n2)c(C)n1C" 1.0

For "O=C(NN=Cc1ccc(N2CCOCC2)s1)c1ccc([N+](=O)[O-])cc1" then? 0.0

For "COC(=O)c1[nH]c2ccccc2c1NC(=O)CN1CCCc2ccccc21" then? 0.0

For Cc1nc2n(n1)CC(O)CS2 (stereo unspecified) then? 0.0

For CCC(=O)Nc1c2c(nn1-c1ccc(F)cc1)CS(=O)C2 (stereo unspecified) then? 0.0

For "O=C(CSc1nc2ccccc2s1)NCCCN1CCOCC1" then? 0.0
